Target: ERα (Homo sapiens, UniProt P03372)
Sequence (P03372 whole entry): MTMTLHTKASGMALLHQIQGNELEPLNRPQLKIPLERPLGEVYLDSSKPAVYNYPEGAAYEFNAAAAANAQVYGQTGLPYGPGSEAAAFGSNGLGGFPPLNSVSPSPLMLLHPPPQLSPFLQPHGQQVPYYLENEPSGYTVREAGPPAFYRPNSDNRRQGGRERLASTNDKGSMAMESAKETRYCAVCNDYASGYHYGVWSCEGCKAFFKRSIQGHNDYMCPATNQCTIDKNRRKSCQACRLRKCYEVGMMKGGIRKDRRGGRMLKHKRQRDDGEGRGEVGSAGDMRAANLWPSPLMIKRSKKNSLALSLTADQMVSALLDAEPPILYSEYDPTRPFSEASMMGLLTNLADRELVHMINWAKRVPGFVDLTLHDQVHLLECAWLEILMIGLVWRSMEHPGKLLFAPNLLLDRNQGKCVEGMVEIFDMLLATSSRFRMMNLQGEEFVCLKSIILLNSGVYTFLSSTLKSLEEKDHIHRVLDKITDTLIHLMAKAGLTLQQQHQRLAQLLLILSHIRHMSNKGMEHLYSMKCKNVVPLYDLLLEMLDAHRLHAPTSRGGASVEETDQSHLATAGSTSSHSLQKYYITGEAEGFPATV
Assay: Degradation of ERα in T-47D cells (immunoblotting, 4 h)
Type: cell-based
Design: host or cells: T-47D
Conditions: 1nM compound
Task for the reader: assign each of the following molecules its reported Degradation rate (%) of ERα in T-47D cells.
Enter your answer as a number in %; do not include the unit.

Enquiry: Using the record for CN(C[C@H]1CC[C@H](C(=O)N2CCC3(CC2)COc2c3ccc3c2CN(C2CCC(=O)NC2=O)C3=O)CC1)[C@@H]1CCN(c2ccc([C@@H]3c4ccc(O)cc4CC[C@@H]3c3ccccc3)cc2)C[C@@H]1F (stereo partly drawn) , report its Degradation rate (%) of ERα in T-47D cells.
Return: 55

Enquiry: And then O=C1CCC(N2Cc3ccc4c(c3C2=O)OCC2(CCN(C3CCC5(CC3)CN(c3ccc([C@@H]6c7ccc(O)cc7CC[C@@H]6c6ccccc6)cc3)C5)CC2)C4)C(=O)N1 (stereo partly drawn) , what is it?
Return: 29

Enquiry: And then O=C1CCC(N2Cc3c(ccc4c3OCC43CCN(CC(=O)N4CCN(c5ccc([C@@H]6c7ccc(O)cc7CC[C@@H]6c6ccccc6)cc5)CC4)CC3)C2=O)C(=O)N1 (stereo partly drawn) , what is it?
Return: 69

Enquiry: And then O=C1CCC(N2C(=O)c3cc4c(cc3C2=O)OC2(CCN(C3CC5(CCN(c6ccc([C@@H]7c8ccc(O)cc8CC[C@@H]7c7ccccc7)cc6)CC5)C3)CC2)C4)C(=O)N1 (stereo partly drawn) , what is it?
Return: 7

Enquiry: And then COC1(CN2CCC3(CC2)COc2c3ccc3c2CN(C2CCC(=O)NC2=O)C3=O)CCN(C(=O)C2CCN(c3ccc([C@@H]4c5ccc(O)cc5CC[C@@H]4c4ccccc4)cc3)CC2)CC1 (stereo partly drawn) , what is it?
Return: 59

Enquiry: And then O=C1CCC(N2Cc3cc4c(cc3C2=O)OCC2(CCN(C3CC5(CCN(c6ccc([C@@H]7c8ccc(O)cc8CC[C@@H]7c7ccccc7)cc6)CC5)C3)CC2)O4)C(=O)N1 (stereo partly drawn) , what is it?
Return: 17

Enquiry: And then C[C@@H]1Cc2cc(O)ccc2C(c2c(F)cc(N3CCC4(CCN(CC(=O)N5CCC6(CC5)COc5c6ccc6c5CN(C5CCC(=O)NC5=O)C6=O)C4)CC3)cc2F)N1CC(F)F (stereo partly drawn) , what is it?
Return: 61

Enquiry: And then O=C1CCC(N2Cc3ccc4c(c3C2=O)OCC42CCN(C(=O)CN3CCC4(CCN(c5ccc([C@@H]6c7ccc(O)cc7CC[C@@H]6c6ccccc6)cc5)CC4)C3)CC2)C(=O)N1 (stereo partly drawn) , what is it?
Return: 48

Enquiry: And then O=C1CCC(N2Cc3ccc4c(c3C2=O)OCC42CCN(C3CCN(C(=O)C4CCN(c5ccc([C@@H]6c7ccc(O)cc7CC[C@@H]6c6ccccc6)cc5)CC4)CC3)CC2)C(=O)N1 (stereo partly drawn) , what is it?
Return: 54

Enquiry: And then O=C1CCC(N2Cc3c(ccc4c3OCC43CCN(C(=O)C4CCC(CN5CCN(c6ccc(C7c8ccc(O)cc8CCC7c7ccccc7)cc6)CC5)CC4)CC3)C2=O)C(=O)N1 (stereo not drawn) [C5] , what is it?
Return: 52

Enquiry: And then O=C1CCC(N2Cc3c(ccc4c3OCC43CCN(C(=O)CC4CCN(c5ccc([C@@H]6c7ccc(O)cc7CC[C@@H]6c6ccccc6)cc5)CC4)CC3)C2=O)C(=O)N1 (stereo partly drawn) [A124] , what is it?
Return: 52

Enquiry: And then O=C1CCC(N2Cc3c(ccc4c3OCC43CCN(C[C@H]4CC[C@H](C#Cc5ccc([C@@H]6c7ccc(O)cc7CC[C@@H]6c6ccccc6)cc5)CC4)CC3)C2=O)C(=O)N1 (stereo partly drawn) , what is it?
Return: 17

Enquiry: And then C[C@H]1C[C@@H](N2CCC3(CC2)COc2c3ccc3c2CN(C2CCC(=O)NC2=O)C3=O)CCN1C(=O)C1CCN(c2ccc([C@@H]3c4ccc(O)cc4CC[C@@H]3c3ccccc3)cc2)CC1 (stereo partly drawn) , what is it?
Return: 55

Enquiry: And then C[C@@H]1Cc2c([nH]c3ccccc23)[C@@H](c2c(F)cc(N3CCC4(CCN(CC(=O)N5CCC6(CC5)COc5c6ccc6c5CN(C5CCC(=O)NC5=O)C6=O)C4)CC3)cc2F)N1CC(F)F (stereo partly drawn) , what is it?
Return: 49

Enquiry: And then O=C1CCC(N2Cc3c(ccc4c3OCC43CCN(C4CCN(C(=O)c5ccc([C@@H]6c7ccc(O)cc7CC[C@@H]6c6ccccc6)cc5)CC4)CC3)C2=O)C(=O)N1 (stereo partly drawn) , what is it?
Return: -3

Enquiry: And then CC1CC(N2CCC3(CC2)COc2c3ccc3c2CN(C2CCC(=O)NC2=O)C3=O)CCN1C1CC2(CCN(c3ccc(C4c5ccc(O)cc5CCC4c4ccccc4)cc3)CC2)C1 (stereo not drawn) , what is it?
Return: 42

Enquiry: And then O=C1CCC(N2Cc3c(ccc4c3OCC43CCN(CC(=O)N(CC4CC4)C4CC5(CCN(c6ccc([C@@H]7c8ccc(O)cc8CC[C@@H]7c7ccccc7)cc6)CC5)C4)CC3)C2=O)C(=O)N1 (stereo partly drawn) , what is it?
Return: 24

Enquiry: And then O=C1CCC(N2Cc3c(ccc4c3OCC43CCN(CC(=O)N4CCC5(CCN(c6ccc([C@@H]7c8ccc(O)cc8CC[C@@H]7c7ccccc7)cc6)CC5)C4)CC3)C2=O)C(=O)N1 (stereo partly drawn) , what is it?
Return: 55

Enquiry: And then O=C1CCC(N2Cc3c(ccc4c3OCC43CCN(C4CCN(C5CC6(CCN(c7ccc([C@@H]8c9ccc(O)cc9CC[C@@H]8c8ccccc8)cc7)CC6)C5)[C@H](C(=O)NC5CCCC5)C4)CC3)C2=O)C(=O)N1 (stereo partly drawn) , what is it?
Return: 53

Enquiry: And then O=C1CCC(N2Cc3c(ccc4c3OCC43CCN(C(=O)CN4CCC5(CC4)CN(c4ccc([C@@H]6c7ccc(O)cc7CC[C@@H]6c6ccccc6)cc4)C5)CC3)C2=O)C(=O)N1 (stereo partly drawn) , what is it?
Return: 52

Enquiry: And then O=C1CCC(N2C(=O)c3cc4c(cc3C2=O)OC2(CC4)CN(CC3CCC4(CC3)CCN(c3ccc([C@@H]5c6ccc(O)cc6CC[C@@H]5c5ccccc5)cc3)CC4)C2)C(=O)N1 (stereo partly drawn) , what is it?
Return: 8

Sourced from patent EP4656642A1
